Tested on: pharynx squamous carcinoma FaDu
Assay: In vitro proliferation assay (sulforhodamine B), FaDu
Type: cell-based
Conditions: Homo sapiens, 24 h treatment, ± SD
Method: The effects of selected compounds were also examined on the proliferation of four cell lines from different human solid tumors overexpressing hCA isoforms IX and XII: triple negative breast cancer MDA-MB231, colon carcinoma HT-29, tongue squamous carcinoma SCC-15 and pharynx squamous carcinoma FaDu. […] The median values from three different proliferation assays for each compound and for each cell line were calculated and their significance was evaluated. […]
pEC50: −log10 of the molar value.
MEASURE: pEC50

Below, each entry is followed by its recorded pEC50 result.
>  <COMPOUND_SMILES>
CCOC(=O)/C(O)=C/C(=O)/C=C/c1cn(Cc2ccc(OC)cc2)c2ccccc12

>  <pEC50>
4.39

$$$$
>  <COMPOUND_SMILES>
Cc1ccc(Cn2cccc2/C=C/C(=O)/C=C(\O)C(=O)O)cc1

>  <pEC50>
4.23

$$$$
>  <COMPOUND_SMILES>
O=C(/C=C(\O)C(=O)O)/C=C/c1cccn1Cc1ccccc1F

>  <pEC50>
4.01

$$$$

(P) O=C(/C=C(\O)C(=O)O)/C=C/c1cn(Cc2ccc(F)cc2)cc1-c1ccccc1
(Q) COc1ccc(Cn2cc(/C=C/C(=O)/C=C(\O)C(=O)O)c3ccccc32)cc1
Between P and Q , which one shows the larger pEC50 value? Response format: the label of the selected entry.
Q
(Q: 4.29, P: 3.99)

* * *

In this section, each of the compounds is paired with its reported Ki.
Biological target: UniProtKB P00915
Sequence (P00915 whole entry): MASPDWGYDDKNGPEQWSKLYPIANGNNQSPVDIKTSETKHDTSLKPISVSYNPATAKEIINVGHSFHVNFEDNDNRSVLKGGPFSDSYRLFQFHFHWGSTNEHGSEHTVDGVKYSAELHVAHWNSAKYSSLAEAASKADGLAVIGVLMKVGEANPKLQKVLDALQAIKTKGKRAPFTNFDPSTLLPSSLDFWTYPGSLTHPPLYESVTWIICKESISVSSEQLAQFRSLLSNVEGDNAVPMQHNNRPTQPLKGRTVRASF
Assay: Stopped flow CO2 hydrase assay, hCA I inhibition
Conditions: stopped flow technique; means ± SEM of 3 different assays; recombinant hCA I; read-out: Ki CA I

Completed entries (count: 2):
>  <COMPOUND>
CCOC(=O)/C(O)=C/C(=O)/C=C/c1cccn1Cc1ccc(F)cc1 [Compound 2a]

>  <VALUE_MEASURED>
> 100 µM

$$$$
>  <COMPOUND>
CCOC(=O)/C(O)=C/C(=O)c1ccn(Cc2ccc(F)cc2)c1 [Compound 4b]

>  <VALUE_MEASURED>
> 100 µM

$$$$

// Ki lookup, key: O=C(/C=C(\O)C(=O)O)/C=C/c1cc(C(=O)c2ccccc2)c[nH]1 [Compound 1d]
72.5 µM

If you can, please state the reported Ki value of O=C(/C=C(\O)C(=O)O)/C=C/c1cn(Cc2ccc(F)cc2)cc1-c1ccccc1 [Compound 5] .
> 100 µM

* * *

Target: hCA XII (Homo sapiens, UniProt O43570)
Sequence (O43570 25-354): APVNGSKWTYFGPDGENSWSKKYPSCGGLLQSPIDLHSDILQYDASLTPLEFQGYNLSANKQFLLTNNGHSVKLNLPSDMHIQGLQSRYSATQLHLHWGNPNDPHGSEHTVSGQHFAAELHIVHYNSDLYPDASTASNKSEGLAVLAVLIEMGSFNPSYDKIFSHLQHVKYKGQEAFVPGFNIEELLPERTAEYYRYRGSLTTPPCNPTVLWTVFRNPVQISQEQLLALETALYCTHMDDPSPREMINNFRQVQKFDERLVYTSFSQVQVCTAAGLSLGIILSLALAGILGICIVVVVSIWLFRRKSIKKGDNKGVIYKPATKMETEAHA
Assay: Stopped flow CO2 hydrase assay, hCA XII inhibition
Conditions: stopped flow technique; means ± SEM of 3 different assays; recombinant hCA XII; read-out: Ki CA XII
MEASURE: Ki (µM)

Here's what some known entries look like.
>  <COMPOUND_SMILES>
CCOC(=O)/C(O)=C/C(=O)/C=C/c1cn(Cc2ccc(OC)cc2)c2ccccc12

>  <Ki (µM)>
92

$$$$
>  <COMPOUND_SMILES>
O=C(/C=C(\O)C(=O)O)/C=C/c1cccn1Cc1ccccc1F

>  <Ki (µM)>
2.2

$$$$
>  <COMPOUND_SMILES>
CCOC(=O)/C(O)=C/C(=O)c1cn(Cc2ccc(F)cc2)cc1-c1ccccc1

>  <Ki (µM)>
89.2

$$$$
>  <COMPOUND_SMILES>
CCOC(=O)/C(O)=C/C(=O)/C=C/c1cccn1Cc1ccc(C)cc1

>  <Ki (µM)>
89.3

$$$$
>  <COMPOUND_SMILES>
Cc1ccc(Cn2cccc2/C=C/C(=O)/C=C(\O)C(=O)O)cc1

>  <Ki (µM)>
0.9

$$$$
>  <COMPOUND_SMILES>
CCOC(=O)/C(O)=C/C(=O)/C=C/c1cccn1Cc1ccc(F)cc1

>  <Ki (µM)>
83.6

$$$$
>  <COMPOUND_SMILES>
CCOC(=O)/C(O)=C/C(=O)/C=C/c1cn(Cc2ccc(F)cc2)cc1-c1ccccc1

>  <Ki (µM)>
89

$$$$

(I) CCOC(=O)/C(O)=C/C(=O)/C=C/c1cccn1Cc1ccccc1F
(II) O=C(/C=C(\O)C(=O)O)/C=C/c1cc(C(=O)c2ccccc2)c[nH]1
// returns I or II , whichever has the lower Ki State your choice using its label.
II
(II: 1.1 µM, I: 80.5 µM)
